These entries and their values trace back to the supplement of paper PMC10567573.

B1: SETD8 (parent)
chain: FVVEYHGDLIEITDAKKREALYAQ

- Variants of: B1
- Protocol text: protein stability index of a GFP-peptide fusion (GPS, HEK-293T) (PSI 1-6); higher = more stable;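 also: lentivirally expressed fusions sorted by FACS into six bins by GFP to DsRed ratio, PSI derived from sequencing read proportions per bin multiplied by bin number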
- Condition summary: c terminus: a fixed tail appended
Tag: 1 if measured protein stability index is not below 2, -1 if it is.

Before answering, review these 4 worked examples.
> print(dat)
   changes  answer.label
1     Y22Q             1
2     R18A            -1
3     D14H            -1
4     I12H             1

input: Is it the case that `I12C` has protein stability index reaching or exceeding 2?
output: 1

input: Can you handle `R18P` next?
output: -1
